Each record here notes measured Kd.
- target_system: T1, human TGF-β3 (human, UniProt P10600 301-412)
- T1 construct: also called hTGF-b3; hTGFbeta-3
- T1 sequence: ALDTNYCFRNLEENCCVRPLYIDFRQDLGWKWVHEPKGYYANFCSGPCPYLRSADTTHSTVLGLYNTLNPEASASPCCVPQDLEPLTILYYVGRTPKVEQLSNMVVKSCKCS
- assay_remarks: BiaCORE (surface plasmon resonance)
Expressed in nM, but write only the number.

MOR14797 (antibody, human IgG1, kappa, V domains shown, (no LALA)) VH: QVTLRESGPALVKPTQTLTLTCTFSGFSLSTSGMGVGWIRQPPGKALEWLAHIYWNDDKSYSTSLKTRLTISKDTSKNQVVLTMTNMDPVDTATYYCARDFYYSGYFDSWGQGTLVTVSS VL: DIQMTQSPSSLSASVGDRVTITCRASQDISNYLNWYQQKPGKAPKLLIFGASSLQSGVPSRFSGSGSGTDFTLTISSLQPEDFATYYCQQTNTMNTFGQGTKVEIKR
27.4

Lookup: Requested read-out: Kd. Entry: MOR14799 (antibody, human IgG1, lambda, V domains shown) VH: QVQLVQSGAEVKKPGESLKISCKGSGYSFTRYYVAWVRQMPGKGLEWMGWIDPGQSNTRYSPSFQGQVTISADKSISTAYLQWSSLKASDTAMYYCARMLAWGWFDYWGQGTLVTVSS VL: SYELTQPLSVSVALGQTARITCSGDNLGGYYAHWYQQKPGQAPVLVIYDKSDRPSGIPERFSGSNSGNTATLTISRAQAGDEADYYCASYDSSLMMVFGGGTKLTVLG
Found: 0.0199
